Test: Toxicity liver stage against HepG2, at 10uM
Type: cell-based
Design: test concentration 10 uM, cell line HepG2-A16-CD81EGFP
Conditions: human, HepG2-A16-CD81EGFP cells; read-out: INHIBITION
Measured Quantity: cytotoxicity at 10 µM (%)
Numbers only; they are read as %.

Consider the following illustrative entries.
CN1CCC2(COCc3cnc(N4CCOCC4)nc32)C1 (stereo not drawn); -6.13
COc1ccc(F)cc1C(=O)N1CCn2c(nnc2C(F)(F)F)C1; -7.61
COCc1ccccc1C(=O)N1CCC(CNC(=O)OC(C)(C)C)C1 (stereo not drawn); 10.1
Cc1cnc(C(=O)N2CCCn3c(nc(CN(C)C)cc3=O)C2)cn1; -5.93
CN(CCN1CCOCC1)C(=O)C1(c2ccc(F)cc2F)CCC1; -6.68
CCn1cnnc1CNC(=O)NC(c1ccccc1)C1CCCC1 (stereo not drawn); 12
COCC(=O)N[C@H]1C[C@H]2C(=O)NC[C@@H](CCC(=O)NC3CC3)N2C1; 10.7
CCCSc1ncc(CN2CCN(C)C(=O)C2C)cn1 (stereo not drawn); 7.75

Form field: reported cytotoxicity at 10 µM of CN(C)C(=O)CN1CCC2(CCN(Cc3nccs3)CC2)C1=O
1.31

What value of cytotoxicity at 10 µM has been reported for the following compound? CN(C(=O)NCCCN1CCCC1)C1CCN(c2ccccc2)C1=O (stereo not drawn)
0.864

I am curious: what cytotoxicity at 10 µM value has been reported for CCCNC(=O)c1cc(C(C)C)nc(N2CCCC2)n1 ?
8.77

Looking for the measured cytotoxicity at 10 µM of CC(C)n1nc(CN2CCCCC2)c2c1CN(C(=O)c1ccno1)C2 , can you help?
4.19

Fill in: cytotoxicity at 10 µM of CCN(Cc1cc(-c2ccccn2)no1)C1CCS(=O)(=O)C1 (stereo not drawn) is ___
-14.9

Record request: cytotoxicity at 10 µM value, item CCc1oc(C(=O)OC)cc1Cn1cccc(C(F)(F)F)c1=O
-2.13

// cytotoxicity at 10 µM lookup, key: Cc1ncsc1CCN(C)Cc1ccc(Br)o1
-43

Name the recorded cytotoxicity at 10 µM for CC(OCC1CC1)C(=O)Nc1cccc(C(=O)Nc2ccncc2)c1 (stereo not drawn) .
7.12

Value lookup for cytotoxicity at 10 µM; key = CCN(CC)C(=O)COc1ccnc2cc(OC)ccc12
-2.17
